Numbers sourced from PubChem BioAssay (NCI).

Tested on: OVCAR-8 ovarian
Experiment: NCI-60 one-dose screen, 48 h (100 = growth as untreated, 0 = no growth, -100 = all killed)
Details: 10 µM unless noted
Procedure: Growth inhibition of the OVCAR-8 human tumor cell line is measured as a screen for anti-cancer activity. Cells are grown in 96 well plates and exposed to the test compound for 48 hours. Compounds are tested at a single concentration, which is 10^-5 M for most compounds. The reported endpoint is percent growth (GI% or GIPRCNT), where numbers from 0 - 100% represent growth inhibition, and numbers from -100% - 0 represent cell death. For example, a value of 40 represents 60% growth inhibition. […]
Compounds without any hit were thinned out: in the full panel of roughly 83,000, 20% have a hit.
Recorded Metric: growth (%)
Could you give me the number in %? Just the number is fine.

Guide cases for growth, answers given:
Compound	Experimental System	Unit Of Measurement	Value Observed
CCCCCCCCCCCCCCCCCCNC(=O)[C@H]1CSC(c2ccc(F)c(OC)c2)N1 (stereo not given in full)	OVCAR-8 ovarian	%	-28.2
CCCCN(CCCC)Cc1c(C)[nH]c2cc(OC)ccc2c1=O	OVCAR-8 ovarian	%	91.9
COc1ccc(C2CC(=O)Nc3c2c(C)nn3-c2nc3ccccc3[nH]2)cc1 (stereo not given)	OVCAR-8 ovarian	%	108
COC(=O)C12C3C(=O)N(c4ccc(OC)cc4)C(=O)C3C(c3cn(-c4ccccc4)nc3C)N1[C@H](c1cn(-c3ccccc3)nc1C)[C@@H]1C(=O)N(c3ccc(OC)cc3)C(=O)[C@@H]12 (stereo not given in full)	OVCAR-8 ovarian	%	99
CCN(CC)CCCC(C)N/C(=C1\C(=O)NC(=O)\C1=C(/NC(C)CCCN(CC)CC)c1cccc(OC)c1)c1cccc(OC)c1 (stereo not given)	OVCAR-8 ovarian	%	5.58

Q: For the compound shown here, O=C(O)c1ccc2c(c1Sc1ccccc1)C(=O)c1ccccc1C2=O , give the reported growth.
Result: 105

Q: So what does the record say about growth for COC1=CC(=O)C(OC)=C(OC)C1=O ?
Result: 101

Q: Look up growth: C=C1CC2(OC1=O)C(=O)N(CCCCCCCCCCCCN1C(=O)C3(CC(=C)C(=O)O3)c3ccccc31)c1ccccc12 (stereo not given)
Result: 57

Q: Bench note: what growth did CC#Cc1nc2ccccc2c(=O)[nH]1 show?
Result: 42

Q: Given CCOC(=O)C12CCCC1=CC(=O)CC2 (stereo not given) , state its recorded growth.
Result: 96.5

* * *

Test system: DU-145 prostate
Assay: NCI-60 one-dose screen, 48 h (100 = growth as untreated, 0 = no growth, -100 = all killed)
Conditions: 10 µM unless noted
This is part of a sample that, as a whole, favours compounds with a hit. Of some 83,000 tested, about 20% had one in any assay.
Recorded Metric: growth (%)
Report the value in % with no unit label.

Recorded growth, per entry:
Compound	Value Observed
CC[C@H](Nc1cc(C)nc(N)n1)c1nc2cccc(NCc3ccc(C(=O)NO)cc3)c2c(=O)n1-c1ccccc1	36.4
Cc1nc2nc(N)nc(N)c2nc1C	110
CSc1ccc(N=C=C(c2ccccc2)c2ccccc2)cc1	109
Oc1cccc(Nc2nccc(-c3ccc4ccccc4c3)n2)c1	27.3
Cn1c2ccccc2c2c3c(c4c5ccccc5n(CCCCCC#N)c4c21)C(=O)N(O)C3=O	16.3
CCN(CC)CCCC(C)N/C(=C1\C(=O)NC(=O)\C1=C(/NC(C)CCCN(CC)CC)c1cccc(OC)c1)c1cccc(OC)c1 (stereo unspecified)	4.62
Nc1cc(O)cc2cccnc12	107
COc1ccccc1/C=C(/C(=O)c1ccccc1)c1ccccc1	110
COc1ccc(-c2c3c(nc4n[nH]c(-c5ccc(Cl)cc5)c24)-c2ccccc2C(=O)C3=O)cc1	22.4
C/C(=C(/c1ccc(O)cc1)c1ccc(Cl)cc1)c1ccccc1	-75.2

Now for another entry.
Q: Write down the reported growth of CCCC(=O)Oc1ccc(/C(=C(/CC)Cc2ccccc2)c2ccc(OCCN3CCCC3)cc2)cc1 , test system: DU-145 prostate.
Result: 87
